Below, each of the sequences is paired with its reported Kd value.
Molecular target: HLA-B*44:03
Test: IEDB peptide-MHC binding, purified MHC/competitive/radioactivity; filed as Kd, often an IC50 or EC50 that approximates it; bounds were set here for any values at or beyond the usual limits of such assays
Conditions: source organism: Dengue virus 1 Brazil/97-11/1997

{"columns": ["seq-string", "Kd, nM"],
 "data": [
  ["QERGKSLLF", 117],
  ["LEFFLMVLLI", 9090],
  ["SEIQLTDYG", 441],
  ["EELGDGLAM", 76.6]
]}

* * *

Biological target: HLA-A*69:01
Assay: IEDB peptide-MHC binding, purified MHC/direct/fluorescence; filed as Kd, often an IC50 or EC50 that approximates it; bounds were set here for any values at or beyond the usual limits of such assays
Conditions: source organism: Escherichia coli O157:H7
pKd: −log10 of the molar value.
Below, each of the sequences is paired with its reported pKd value.
measured-attribute: pKd

{"columns": ["seq-string", "val"],
 "data": [
  ["ALEKGIKDV", "≤ 4.70"],
  ["EEDAAVDDL", "≤ 4.70"],
  ["YECTSRHFT", "≤ 4.70"]
]}

* * *

Biological target: HLA-A*01:01
Experiment: IEDB peptide-MHC binding, purified MHC/competitive/fluorescence; filed as Kd, often an IC50 or EC50 that approximates it; bounds were set here for any values at or beyond the usual limits of such assays
Details: source organism: Influenza A virus (A/X-31(H3N2))
pKd: −log10 of the molar value.

{"columns": ["seq-string", "system-tested", "pKd"],
 "data": [
  ["KSVFNSLY", "HLA-A*01:01", 5.83]
]}

* * *

Target: HLA-A*03:01
Assay: IEDB peptide-MHC binding, purified MHC/competitive/radioactivity; filed as Kd, often an IC50 or EC50 that approximates it; bounds were set here for any values at or beyond the usual limits of such assays
Conditions: source organism: Mammarenavirus lassaense
measured-attribute: Kd

{"columns": ["seq-string", "val"],
 "data": [
  ["TCQGSDDIKK", "≥ 70 µM"]
]}

* * *

Biological target: HLA-A*02:01
Test: IEDB peptide-MHC binding, purified MHC/competitive/fluorescence; filed as Kd, often an IC50 or EC50 that approximates it; bounds were set here for any values at or beyond the usual limits of such assays
Conditions: source organism: Bradyrhizobium diazoefficiens
pKd: −log10 of the molar value.

{"columns": ["seq-string", "system-tested", "pKd"],
 "data": [
  ["VTPGPHAQI", "HLA-A*02:01", 5.98]
]}

* * *

Target: HLA-B*44:02
Test: IEDB peptide-MHC binding, purified MHC/direct/fluorescence; filed as Kd, often an IC50 or EC50 that approximates it; bounds were set here for any values at or beyond the usual limits of such assays
Conditions: source organism: Orthohantavirus hantanense

{"columns": ["seq-string", "Kd"],
 "data": [
  ["IRKPKHLYV", "≥ 20 µM"]
]}

* * *

Biological target: HLA-A*68:02
Assay: IEDB peptide-MHC binding, purified MHC/direct/fluorescence; filed as Kd, often an IC50 or EC50 that approximates it; bounds were set here for any values at or beyond the usual limits of such assays
Settings: source organism: Choclo virus
measured-attribute: Kd

{"columns": ["seq-string", "measured-attribute", "val"],
 "data": [
  ["KACDLAMCY", "Kd", "≥ 20 µM"]
]}

Cited source for all entries: the Immune Epitope Database (IEDB)
